System: Lolium perenne (LOLPE)
Assay: Glasshouse assay for herbicidal activity (pre- and post-emergence), percentage phytotoxicity
Format: in vivo
Conditions: Lolium perenne, post-emergence, 360 h, 250 g/ha; post-emergence; 15 DAA; visual assessment (100%=total damage, 0%=no damage); read-out: Post-emergence herbicidal activity (percentage phytotoxicity) LOLPE POST
For each of the compounds below, state its pest or weed control at 250 g/ha.
Write it as a number; the unit % goes unstated.

Lookup: Fill in the recorded pest or weed control at 250 g/ha for this compound, with Lolium perenne (LOLPE) as test system: Cc1cc(C)c(C2C(=O)CC(CC(N)=O)C2=O)c(C)c1 (stereo not drawn)
Found: 90

Lookup: Provide value of pest or weed control at 250 g/ha for this record tested with Lolium perenne (LOLPE): C=C(Br)CNC(=O)CC1CC(=O)C(c2c(C)cc(C)cc2C)C1=O (stereo not drawn)
Found: 90

Lookup: State its pest or weed control at 250 g/ha on Lolium perenne (LOLPE): Cc1cc(C)c(C2C(=O)CC(CC(=O)NCc3cccc([N+](=O)[O-])c3)C2=O)c(C)c1 (stereo not drawn)
Found: 40

Lookup: Lab note: need pest or weed control at 250 g/ha for Cc1cc(C)c(C2C(=O)CC(CC(=O)NCCF)C2=O)c(C)c1 (stereo not drawn) on Lolium perenne (LOLPE), anyone have it?
Found: 90

Lookup: What reported pest or weed control at 250 g/ha corresponds to CCCNC(=O)CC1CC(=O)C(c2c(C)cccc2CC)C1=O (stereo not drawn) on Lolium perenne (LOLPE)?
Found: 100

Lookup: Recall the recorded pest or weed control at 250 g/ha for CC#Cc1cc(C)c(C2C(=O)CC(CC(=O)N3CCOCC3)C2=O)c(C)c1 (stereo not drawn) with Lolium perenne (LOLPE) and state it.
Found: 100

Lookup: API: value(readout= pest or weed control at 250 g/ha, system= Lolium perenne (LOLPE), query= C#CCCNC(=O)CC1CC(=O)C(c2c(C)cc(C)cc2C)C1=O (stereo not drawn) )
Found: 80

Lookup: Provide the documented pest or weed control at 250 g/ha with Lolium perenne (LOLPE) as the system for Cc1cc(-c2ncc(Cl)cc2F)cc(C)c1C1C(=O)CC(CC(=O)NCCF)C1=O (stereo not drawn)
Found: 100

Lookup: Lab note: need pest or weed control at 250 g/ha for C#CCN(CC#C)C(=O)CC1CC(=O)C(c2c(C)cc(-c3ncc(F)cn3)cc2C)C1=O (stereo not drawn) on Lolium perenne (LOLPE), anyone have it?
Found: 90

Lookup: Please tell me: pest or weed control at 250 g/ha of Cc1cc(C)c(C2C(=O)CC(CC(=O)NC(C)C3CC3)C2=O)c(C)c1 (stereo not drawn) , system Lolium perenne (LOLPE)?
Found: 80

Lookup: Identify the measured pest or weed control at 250 g/ha of Cc1cc(Br)cc(C)c1C1C(=O)CC(CC(=O)NCC2CC2C(F)F)C1=O (stereo not drawn) for Lolium perenne (LOLPE).
Found: 90

Lookup: Lolium perenne (LOLPE) / pest or weed control at 250 g/ha / Cc1cc(C)c(C2C(=O)CC(CC(=O)NCc3ccccc3C)C2=O)c(C)c1 (stereo not drawn) : value?
Found: 90

Lookup: Item Cc1cc(C)c(C2C(=O)CC(CC(=O)NCC(F)(F)F)C2=O)c(C)c1 (stereo not drawn) with Lolium perenne (LOLPE) - pest or weed control at 250 g/ha?
Found: 80

Lookup: Missing value: pest or weed control at 250 g/ha, Lolium perenne (LOLPE), entry Cc1cc(C)c(C2C(=O)CC(CC(=O)NCc3ccc(C(F)(F)F)cc3)C2=O)c(C)c1 (stereo not drawn) . Fill in?
Found: 90

Lookup: Write down the reported pest or weed control at 250 g/ha of Cc1cc(-c2ncc(Cl)cc2F)cc(C)c1C1C(=O)CC(CC(=O)NCC2CC2(Cl)Cl)C1=O (stereo not drawn) , test system: Lolium perenne (LOLPE).
Found: 100

Lookup: Record lookup: for Lolium perenne (LOLPE), what pest or weed control at 250 g/ha belongs to Cc1cc(-c2ncc(Cl)cc2F)cc(C)c1C1C(=O)CC(CC(=O)NC/C=C/Cl)C1=O (stereo not drawn) ?
Found: 100

Lookup: Hi! What's the reported pest or weed control at 250 g/ha for Cc1cc(C)c(C2C(=O)CC(CC(=O)NC3CC3(F)F)C2=O)c(C)c1 (stereo not drawn) on Lolium perenne (LOLPE)?
Found: 80

Lookup: Form field - read-out: pest or weed control at 250 g/ha; system: Lolium perenne (LOLPE); submitted item: Cc1cc(C)c(C2C(=O)CC(CC(=O)NCC#CCCl)C2=O)c(C)c1 (stereo not drawn)
Found: 50

Lookup: # get_value(readout= pest or weed control at 250 g/ha, system= Lolium perenne (LOLPE)) for Cc1cc(-c2ncc(C#N)cc2Cl)cc(C)c1C1C(=O)CC(CC(=O)NC(C)(C)C)C1=O (stereo not drawn)
Found: 80

Lookup: Which measured pest or weed control at 250 g/ha belongs to Cc1cc(C)c(C2C(=O)CC(CC(=O)NCC3CC3(Cl)Cl)C2=O)c(C)c1 (stereo not drawn) , tested on Lolium perenne (LOLPE)?
Found: 80

Lookup: Field: pest or weed control at 250 g/ha (Lolium perenne (LOLPE)). Entry: COc1ccc(NC(=O)CC2CC(=O)C(c3c(C)cc(C)cc3C)C2=O)cc1OC (stereo not drawn)
Found: 30
